Measurement Target: FGFR3 (Homo sapiens, UniProt P22607)
Construct: made in house; host or cells: E. coli (BL21-derived), T7 phage
Sequence (P22607 23-806): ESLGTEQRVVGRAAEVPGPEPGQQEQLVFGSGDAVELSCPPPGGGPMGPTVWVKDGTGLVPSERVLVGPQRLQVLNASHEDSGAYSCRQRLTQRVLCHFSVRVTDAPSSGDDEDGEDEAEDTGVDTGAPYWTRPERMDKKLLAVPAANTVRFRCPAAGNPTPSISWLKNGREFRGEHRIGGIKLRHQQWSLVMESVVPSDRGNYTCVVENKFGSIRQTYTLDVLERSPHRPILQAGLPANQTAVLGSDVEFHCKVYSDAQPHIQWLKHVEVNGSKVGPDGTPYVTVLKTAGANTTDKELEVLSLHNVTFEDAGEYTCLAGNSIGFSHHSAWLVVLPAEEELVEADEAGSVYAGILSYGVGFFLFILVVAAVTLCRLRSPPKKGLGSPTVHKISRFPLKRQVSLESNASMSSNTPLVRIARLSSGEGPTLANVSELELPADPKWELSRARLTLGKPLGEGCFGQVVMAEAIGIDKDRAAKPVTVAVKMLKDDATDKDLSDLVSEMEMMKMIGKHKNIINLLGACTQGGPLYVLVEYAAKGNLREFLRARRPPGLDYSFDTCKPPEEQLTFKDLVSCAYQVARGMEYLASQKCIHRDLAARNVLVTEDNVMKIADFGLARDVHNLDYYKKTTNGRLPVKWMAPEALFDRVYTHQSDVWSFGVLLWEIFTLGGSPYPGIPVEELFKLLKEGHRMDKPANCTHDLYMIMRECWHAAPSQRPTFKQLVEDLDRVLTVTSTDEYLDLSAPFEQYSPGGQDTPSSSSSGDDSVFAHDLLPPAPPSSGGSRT
Measurement Notes: Kinase binding assay (kinase-tagged T7 phage, affinity beads, qPCR), Kd
Measurement Label: Kd

// query Recorded Kd for "COP(=O)(CC1(C)CN(c2ncc(-c3n[nH]c4ccc(O[C@H](C)c5c(Cl)cncc5Cl)cc34)cc2F)C1)OC" , please?
// result 1 to 50 nM

* * *

Tested on: KG-1 cell line (FGFR 1-fusion)
Measurement Notes: Cancer cell line cell viability assay (Cell Titer-Glo), 72 hr
Assay type: cell-based
Condition: Homo sapiens, KG-1, KG-1 cell line (FGFR1-fusion)
pIC50: −log10 of the molar value.
# pIC50 listing for each entry below

Example cases with answers are listed next.
[
  {
    "Compound": "C[C@H](O)CNC1(C)CN(c2ccc(-c3n[nH]c4ccc(O[C@H](C)c5c(Cl)cncc5Cl)cc34)cn2)C1 [Example 90]",
    "Measurement Label": "pIC50",
    "Result": "7.30 to 10.00"
  },
  {
    "Compound": "CC[C@@H](C)NC1(C)CN(c2ncc(-c3n[nH]c4ccc(O[C@H](C)c5c(Cl)cncc5Cl)cc34)cc2F)C1 [Example 140]",
    "Measurement Label": "pIC50",
    "Result": "6.70 to 7.30"
  },
  {
    "Compound": "C[C@@H](Oc1cc2c(-c3ccc(N4CC(C)(CP(C)(C)=O)C4)nc3)n[nH]c2cc1F)c1c(Cl)cncc1Cl [Example 67]",
    "Measurement Label": "pIC50",
    "Result": "6.00 to 6.70"
  }
]

Kindly review the next compound as well.
// query Recorded pIC50 for COc1cc2[nH]nc(-c3cnc(N4CC(C)(N[C@@H]5CCOC5)C4)c(C#N)c3)c2cc1O[C@H](C)c1c(Cl)cncc1Cl [Example 25] , please?
// result 6.70 to 7.30

* * *

Measurement Target: FGFR1 (Homo sapiens)
Construct: made in house; host or cells: E. coli (BL21-derived), T7 phage
Sequence (P11362 22-822): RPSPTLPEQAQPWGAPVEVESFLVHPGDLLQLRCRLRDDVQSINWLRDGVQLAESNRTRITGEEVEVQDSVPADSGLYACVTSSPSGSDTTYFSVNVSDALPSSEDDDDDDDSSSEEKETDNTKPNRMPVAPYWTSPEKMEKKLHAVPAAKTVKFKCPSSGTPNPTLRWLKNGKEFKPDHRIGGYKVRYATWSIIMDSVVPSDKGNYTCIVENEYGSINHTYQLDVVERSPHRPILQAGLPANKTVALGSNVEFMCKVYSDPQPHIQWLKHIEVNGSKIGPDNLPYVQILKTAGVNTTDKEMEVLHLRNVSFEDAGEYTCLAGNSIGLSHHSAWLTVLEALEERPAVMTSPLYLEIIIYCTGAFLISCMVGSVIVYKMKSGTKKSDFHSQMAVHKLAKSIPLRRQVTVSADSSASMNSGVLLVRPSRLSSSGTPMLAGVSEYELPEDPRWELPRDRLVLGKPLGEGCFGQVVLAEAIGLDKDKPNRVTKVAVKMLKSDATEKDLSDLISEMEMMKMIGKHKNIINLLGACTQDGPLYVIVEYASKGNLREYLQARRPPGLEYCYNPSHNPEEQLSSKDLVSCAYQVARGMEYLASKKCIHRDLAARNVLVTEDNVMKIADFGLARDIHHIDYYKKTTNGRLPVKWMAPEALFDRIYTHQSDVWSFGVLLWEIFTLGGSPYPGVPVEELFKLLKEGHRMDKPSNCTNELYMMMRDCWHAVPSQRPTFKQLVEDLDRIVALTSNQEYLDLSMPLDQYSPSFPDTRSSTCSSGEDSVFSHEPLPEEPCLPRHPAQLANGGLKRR
Measurement Notes: Kinase binding assay (kinase-tagged T7 phage, affinity beads, qPCR), Kd
Condition: read-out: FGFR1 (Kd nM)
Where a name gives a salt, the structure may show the parent alone.
Measurement Label: Kd

Example cases with answers are listed next.
[
  {
    "Compound": "CCC1(NCC2CC2)CN(c2ncc(-c3n[nH]c4ccc(O[C@H](C)c5c(Cl)cncc5Cl)cc34)cc2F)C1 [Example 247, dihydrochloride]",
    "Measurement Label": "Kd",
    "Result": "1 to 50 nM"
  },
  {
    "Compound": "CC(C)NC1(C)CN(c2ncc(-c3n[nH]c4ccc(O[C@H](C)c5c(Cl)cncc5Cl)cc34)cc2C#N)C1",
    "Measurement Label": "Kd",
    "Result": "1 to 50 nM"
  },
  {
    "Compound": "C[C@@H](Oc1ccc2[nH]nc(-c3cnc(N4CC(C)(N5CC(C)(C)C5)C4)c(F)c3)c2c1)c1c(Cl)cncc1Cl",
    "Measurement Label": "Kd",
    "Result": "1 to 50 nM"
  }
]

// query Recorded Kd for "C[C@@H](Oc1ccc2[nH]nc(-c3ccc(N4CC(N)(CCO)C4)nc3)c2c1)c1c(Cl)cncc1Cl" , please?
// result 1 to 50 nM
